- target or system: Giardia lamblia carbamate kinase (glCK) (Giardia intestinalis)
- Sequence (A8BB85 1-316): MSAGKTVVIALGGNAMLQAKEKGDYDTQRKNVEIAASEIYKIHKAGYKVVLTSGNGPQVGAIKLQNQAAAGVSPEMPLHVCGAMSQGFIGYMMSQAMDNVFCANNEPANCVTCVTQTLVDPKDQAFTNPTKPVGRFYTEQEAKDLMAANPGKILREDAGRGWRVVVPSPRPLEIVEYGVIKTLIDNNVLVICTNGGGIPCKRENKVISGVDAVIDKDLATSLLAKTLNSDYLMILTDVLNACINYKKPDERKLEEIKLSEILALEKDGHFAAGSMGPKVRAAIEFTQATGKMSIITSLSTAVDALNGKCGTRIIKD
- assay overview: Luminescence-based carbamate kinase assay in 1536-well format
- Assay type: biochemical
- test conditions: maximal response of the fitted curve, luminescence assay
Structures can show the parent of a compound that is named as a salt.
measured quantity: Efficacy (% Inhibition) (%)

In: Hello, please tell me recorded Efficacy (% Inhibition) for this one: O=C(O)c1cc(O)c(O)c(O)c1 [Gallic acid]
Out: 89.2

In: Hello, please tell me recorded Efficacy (% Inhibition) for this one: N.N.[Cl][Pt][Cl] [Cisplatin]
Out: 88.2

In: Hello, please tell me recorded Efficacy (% Inhibition) for this one: O=C1C2CC=CCC2C(=O)N1SC(Cl)(Cl)Cl (centres unmarked) [Captan]
Out: 88.6

In: Hello, please tell me recorded Efficacy (% Inhibition) for this one: C[C@@](Cc1ccc(O)c(O)c1)(NN)C(=O)O [Carbidopa]
Out: 79.4

In: Hello, please tell me recorded Efficacy (% Inhibition) for this one: CN(C)C(=S)SSC(=S)N(C)C [Thiram]
Out: 92.3

In: Hello, please tell me recorded Efficacy (% Inhibition) for this one: CN1CCc2cccc3c2[C@H]1Cc1ccc(O)c(O)c1-3 [Apomorphine hydrochloride hemihydrate]
Out: 89.4

In: Hello, please tell me recorded Efficacy (% Inhibition) for this one: OC[C@H]1O[C@H]([S-])[C@H](O)[C@@H](O)[C@@H]1O.[Au+] [Aurothioglucose]
Out: 81.2

In: Hello, please tell me recorded Efficacy (% Inhibition) for this one: CCN(CC)C(=S)S [Ditiocarb]
Out: 77.7

In: Hello, please tell me recorded Efficacy (% Inhibition) for this one: CCOC(=S)SSC(=S)OCC [Bis(ethylxanthogen)]
Out: 82.3

In: Hello, please tell me recorded Efficacy (% Inhibition) for this one: O=C(O)Cc1ccc(O)c(O)c1 [3,4-Dihydroxyphenylacetic acid]
Out: 80.2

In: Hello, please tell me recorded Efficacy (% Inhibition) for this one: CCN(CC)C(=S)SSC(=S)N(CC)CC [Disulfiram]
Out: 90.5
